# protocol-details: logP determination by HPLC on reversed-phase column (EEC Directive 79/831 annex V.A8)
# Type: physicochemical
# stated-conditions: reversed-phase C18 HPLC column; HPLC, reversed-phase C 18, 43° C., acidic range (pH 2.3), marked a)
property: chromatographic logP

{"columns": ["smi", "result-number"],
 "data": [
  ["CC#CCOc1cc(-c2cccs2)ncn1", 2.95],
  ["CC#CCOc1cc(-n2ccnc2)ncn1", 1],
  ["CC#CCOc1cc(-n2cccn2)ncn1", 2.55],
  ["CC#CCOc1cc(-c2ccccn2)ncn1", 2.31],
  ["CC#CCOc1cc(-c2cscc2C)ncn1", 3.26]
]}

###

Each entry below lists one item and its recorded chromatographic logP value.
# protocol-details: logP determination by HPLC on reversed-phase column (EEC Directive 79/831 annex V.A8)
# Type: physicochemical
# stated-conditions: reversed-phase HPLC column; in the preparation example, pH range not marked
# Procedure: Calibration was carried out using unbranched alkan-2-ones (having 3 to 16 carbon atoms) with known logP values (determination of logP values by the retention times using linear interpolation between two successive alkanone).

{"columns": ["smi", "chromatographic logP"],
 "data": [
  ["Clc1cc(-c2ccsc2)ncn1", 2.31],
  ["CC#CCOc1cc(-n2cc(Cl)cn2)ncn1", 3.65],
  ["CC#CCOc1cc(-c2ccsc2)ncn1", 2.84]
]}
